B1: mRNA-splicing (parent)
chain: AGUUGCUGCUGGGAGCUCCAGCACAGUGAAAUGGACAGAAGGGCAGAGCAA

# Variants of: B1
# method: exon inclusion enrichment index; higher = more inclusion; WT1 exon 5 minigene, HEK293
# binning rule on exon inclusion enrichment index: bottom bin = under 0.06, middle bin = from 0.06 up to 3, top bin = 3 and over

Some entries whose results are on file:
- mutant: "U4C G5A C6G U7C U10C"
  class: "top bin"
- mutant: "G5A C6U U7A G8U C9A C18U"
  class: "bottom bin"
- mutant: "G5U G8U C9U G28U"
  class: "bottom bin"
- mutant: "G5C C6A U7C G8A U10A C36G"
  class: "bottom bin"
- mutant: "U4C G5U C6G U7C U10C"
  class: "top bin"

Each variant maps to one class by exon inclusion enrichment index. Which class for G5C C6G U7C U10C A40C ? top bin

Each variant maps to one class by exon inclusion enrichment index. Which class for G5A U7C G8A U10C G21C C22G ? top bin

Each variant maps to one class by exon inclusion enrichment index. Which class for G2U U3A C6A U7A C9A U10A ? middle bin

Each variant maps to one class by exon inclusion enrichment index. Which class for C6A U7C C9A U10C U17C C18U ? top bin

Each variant maps to one class by exon inclusion enrichment index. Which class for C6A U7A C9A U10A A35C C36U ? bottom bin

Each variant maps to one class by exon inclusion enrichment index. Which class for G5C C6G U7C U10C A35U C36G ? middle bin
